Molecular target: T1, His-tagged human IL-1 Rrp2/IL-1 R6 protein (human, UniProt Q9HB29 20-335)
T1 construct: Bought reagent; also called Human IL-1 Rrp2/IL-1 R6 Protein, His Tag; ACRO Biosystems IL2-H52H6; not shown: His tag
T1 sequence (looked up): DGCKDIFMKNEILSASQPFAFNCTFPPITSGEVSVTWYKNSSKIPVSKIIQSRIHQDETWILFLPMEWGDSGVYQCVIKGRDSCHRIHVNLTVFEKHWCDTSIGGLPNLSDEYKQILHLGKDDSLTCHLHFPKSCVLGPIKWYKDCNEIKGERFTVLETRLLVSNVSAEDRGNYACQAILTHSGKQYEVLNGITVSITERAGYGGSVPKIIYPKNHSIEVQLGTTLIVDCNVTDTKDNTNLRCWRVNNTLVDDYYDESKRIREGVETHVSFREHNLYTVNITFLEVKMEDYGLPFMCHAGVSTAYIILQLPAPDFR
Experiment: SPR (Biacore 8K), His-tagged antigen captured by anti-His on CM5, antibody as analyte, 1:1 model
Result Type: pKd
Numbers only, as −log10 of the molar value.

Binder	pKd
humanized anti-IL-36R antibody 900527 (antibody, V domains shown, IgG1 (human IgG1 L234A/L235A, human kappa); also called HB0034) VH: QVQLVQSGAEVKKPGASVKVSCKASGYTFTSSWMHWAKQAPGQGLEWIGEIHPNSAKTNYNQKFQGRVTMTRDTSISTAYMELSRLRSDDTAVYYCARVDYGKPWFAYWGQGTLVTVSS VL: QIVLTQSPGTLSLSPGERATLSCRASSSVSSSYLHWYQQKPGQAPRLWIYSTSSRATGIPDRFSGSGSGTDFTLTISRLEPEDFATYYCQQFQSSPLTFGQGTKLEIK	10.34

Please go through the list and note pKd for each binder.
1. humanized anti-IL-36R antibody 900513 (antibody, V domains shown, IgG1; built from the chimeric expression plasmids (human IgG1 L234A/L235A, human kappa)) VH: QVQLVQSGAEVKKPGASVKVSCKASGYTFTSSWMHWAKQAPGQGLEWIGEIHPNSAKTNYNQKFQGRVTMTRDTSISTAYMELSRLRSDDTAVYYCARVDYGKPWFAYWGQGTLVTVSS VL: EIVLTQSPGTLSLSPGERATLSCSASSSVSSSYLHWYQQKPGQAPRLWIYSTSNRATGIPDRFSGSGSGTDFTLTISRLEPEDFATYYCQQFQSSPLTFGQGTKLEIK
2. humanized anti-IL-36R antibody 900534 (antibody, V domains shown, IgG1 (human IgG1 L234A/L235A, human kappa)) VH: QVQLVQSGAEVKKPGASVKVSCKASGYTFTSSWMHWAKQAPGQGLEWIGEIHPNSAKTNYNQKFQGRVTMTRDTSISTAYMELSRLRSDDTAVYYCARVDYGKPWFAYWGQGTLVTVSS VL: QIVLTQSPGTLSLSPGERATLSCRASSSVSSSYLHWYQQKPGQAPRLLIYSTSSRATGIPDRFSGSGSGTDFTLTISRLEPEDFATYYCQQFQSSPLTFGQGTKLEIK
3. anti-IL-36R chimeric antibody 900497 (antibody, V domains shown, Human-mouse chimera: human IgG1 heavy-chain constant region with L234A and L235A (Eu numbering), human kappa constant region) VH: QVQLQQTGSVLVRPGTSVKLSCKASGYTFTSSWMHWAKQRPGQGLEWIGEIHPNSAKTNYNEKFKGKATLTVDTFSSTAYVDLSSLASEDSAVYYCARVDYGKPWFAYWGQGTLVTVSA VL: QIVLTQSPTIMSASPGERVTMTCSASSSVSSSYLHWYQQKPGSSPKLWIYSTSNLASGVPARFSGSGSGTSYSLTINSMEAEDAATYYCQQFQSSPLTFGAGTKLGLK

Result:
1: 10.83; 2: 10.24; 3: 10.60
